test_summary: Exudation of active agents from gel specimens to filter paper discs, quantified by UV, MS, GC and/or HPLC after extraction
Assay type: physicochemical
stated_conditions: Gel Specimen Number 2; cumulative, Time 22 h
Procedure: Sample filter paper discs were placed in contact with gel specimens of same diameter under constant low pressure (0.40 psi. (2.8 Mpa)) at 37° C. […] Quantification of active agent transferred to the filter paper discs was determined by UV, MS, GC and or HPLC analysis after extraction of active agent from the filter paper. Exudation rates was expressed as μg/unit time per unit surface area. […] Exposure Conditions: 37-40 deg. […] Pressure calculated at ˜0.407 psi. […]
test_readout: Total Active Agent Exuded from Gel (µg)

Guide cases for Total Active Agent Exuded from Gel, answers given:
1) O=c1c(O)c(-c2ccc(O)c(O)c2)oc2cc(O)cc(O)c12
57
2) COC(=O)c1ccccc1O [Methyl Salicylate, reference compound]
9106

(a) CCCCCCCCCCCCCCCC(=O)OC/C=C(C)/C=C/C=C(C)/C=C/C1=C(C)CCCC1(C)C [Vit. A Palmitate, reference compound]
(b) O=C(O)c1ccccc1O [Salicylic Acid, reference compound]
stdin: Please choose the item with the lower Total Active Agent Exuded from Gel value from this pair: a and b Mark your answer with the label of the selected entry.
stdout: a

====

test_summary: Exudation of active agents from gel specimens to filter paper discs, quantified by UV, MS, GC and/or HPLC after extraction
Assay type: physicochemical
stated_conditions: Gel Specimen Number 1; 1 h filter exposure, time 0-1 h; 37° C., 0.40 psi
Procedure: Sample filter paper discs were placed in contact with gel specimens of same diameter under constant low pressure (0.40 psi. (2.8 Mpa)) at 37° C. […] Quantification of active agent transferred to the filter paper discs was determined by UV, MS, GC and or HPLC analysis after extraction of active agent from the filter paper. Exudation rates was expressed as μg/unit time per unit surface area. […] Exposure Conditions: 37-40 deg. […] Pressure calculated at ˜0.407 psi. […]
test_readout: Active Agent Transferred from Gel to Filters (μg per filter)

Guide cases for Active Agent Transferred from Gel to Filters, answers given:
1. O=C(O)c1ccccc1O [Salicylic Acid, reference compound]
372
2. COC(=O)c1ccccc1O [Methyl Salicylate, reference compound]
1005

(1) CCCCCCCCCCCCCCCC(=O)OC/C=C(C)/C=C/C=C(C)/C=C/C1=C(C)CCCC1(C)C [Vit. A Palmitate, reference compound]
(2) O=c1c(O)c(-c2ccc(O)c(O)c2)oc2cc(O)cc(O)c12
stdin: Rank 1 against 2 by their Active Agent Transferred from Gel to Filters values and give the higher one. Mark your answer with the label of the selected entry.
stdout: 1

====

test_summary: Exudation of active agents from gel specimens to filter paper discs, quantified by UV, MS, GC and/or HPLC after extraction
Type: physicochemical
stated_conditions: Gel Specimen Number 2; 18 h filter exposure, time 22-40 h; 37° C., 0.40 psi
test_readout: Active Agent Transferred from Gel to Filters (μg per filter)

Guide cases for Active Agent Transferred from Gel to Filters, answers given:
1. O=c1c(O)c(-c2ccc(O)c(O)c2)oc2cc(O)cc(O)c12 [Quercetin]
21
2. COC(=O)c1ccccc1O [Methyl Salicylate, reference compound]
4271

(P) O=C(O)c1ccccc1O [Salicylic Acid, reference compound]
(Q) CCCCCCCCCCCCCCCC(=O)OC/C=C(C)/C=C/C=C(C)/C=C/C1=C(C)CCCC1(C)C [Vit. A Palmitate, reference compound]
stdin: Rank P against Q by their Active Agent Transferred from Gel to Filters values and give the higher one. Mark your answer with the label of the selected entry.
stdout: P

====

test_summary: Exudation of active agents from gel specimens to filter paper discs, quantified by UV, MS, GC and/or HPLC after extraction
Format: physicochemical
stated_conditions: Gel Specimen Number 1; 18 h filter exposure, time 4-22 h; 37° C., 0.40 psi
test_readout: Active Agent Transferred from Gel to Filters (μg per filter)

1) COC(=O)c1ccccc1O [Methyl Salicylate, reference compound]
4812

(A) O=c1c(O)c(-c2ccc(O)c(O)c2)oc2cc(O)cc(O)c12
(B) O=C(O)c1ccccc1O [Salicylic Acid, reference compound]
(C) CCCCCCCCCCCCCCCC(=O)OC/C=C(C)/C=C/C=C(C)/C=C/C1=C(C)CCCC1(C)C [Vit. A Palmitate, reference compound]
stdin: # desc sort on Active Agent Transferred from Gel to Filters across 3 molecules # list labels per requested ordering
stdout: B, C, A

====

test_summary: Exudation of active agents from gel specimens to filter paper discs, quantified by UV, MS, GC and/or HPLC after extraction
Type: physicochemical
stated_conditions: Gel Specimen Number 2; 1 h filter exposure, time 0-1 h; 37° C., 0.40 psi
test_readout: Active Agent Transferred from Gel to Filters (μg per filter)

(I) COC(=O)c1ccccc1O [Methyl Salicylate, reference compound]
(II) O=C(O)c1ccccc1O [Salicylic Acid, reference compound]
(III) CCCCCCCCCCCCCCCC(=O)OC/C=C(C)/C=C/C=C(C)/C=C/C1=C(C)CCCC1(C)C [Vit. A Palmitate, reference compound]
(IV) O=c1c(O)c(-c2ccc(O)c(O)c2)oc2cc(O)cc(O)c12
stdin: Sort key = Active Agent Transferred from Gel to Filters. Sort direction = ascending. Apply to the list above. # list labels per requested ordering
stdout: IV, II, III, I
(IV: 12 μg per filter, II: 705 μg per filter, III: 1159 μg per filter, I: 1753 μg per filter)

====

test_summary: Exudation of active agents from gel specimens to filter paper discs, quantified by UV, MS, GC and/or HPLC after extraction
Type: physicochemical
stated_conditions: Gel Specimen Number 1; cumulative, Time 1 h
test_readout: Total Active Agent Exuded from Gel (µg)

1. COC(=O)c1ccccc1O [Methyl Salicylate, reference compound]
1005
2. CCCCCCCCCCCCCCCC(=O)OC/C=C(C)/C=C/C=C(C)/C=C/C1=C(C)CCCC1(C)C [Vit. A Palmitate, reference compound]
841

(a) O=C(O)c1ccccc1O [Salicylic Acid, reference compound]
(b) O=c1c(O)c(-c2ccc(O)c(O)c2)oc2cc(O)cc(O)c12 [Quercetin]
stdin: Please choose the item with the lower Total Active Agent Exuded from Gel value from this pair: a and b Mark your answer with the label of the selected entry.
stdout: b
(b: 10 µg, a: 372 µg)

====

test_summary: Exudation of active agents from gel specimens to filter paper discs, quantified by UV, MS, GC and/or HPLC after extraction
Type: physicochemical
stated_conditions: Gel Specimen Number 1; 18 h filter exposure, time 40-58 h; 37° C., 0.40 psi
test_readout: Active Agent Transferred from Gel to Filters (μg per filter)

Guide cases for Active Agent Transferred from Gel to Filters, answers given:
1) O=C(O)c1ccccc1O [Salicylic Acid, reference compound]
4035
2) COC(=O)c1ccccc1O [Methyl Salicylate, reference compound]
3882

(I) O=c1c(O)c(-c2ccc(O)c(O)c2)oc2cc(O)cc(O)c12
(II) CCCCCCCCCCCCCCCC(=O)OC/C=C(C)/C=C/C=C(C)/C=C/C1=C(C)CCCC1(C)C [Vit. A Palmitate, reference compound]
stdin: Please choose the item with the lower Active Agent Transferred from Gel to Filters value from this pair: I and II Mark your answer with the label of the selected entry.
stdout: I

====

test_summary: Exudation of active agents from gel specimens to filter paper discs, quantified by UV, MS, GC and/or HPLC after extraction
Format: physicochemical
stated_conditions: Gel Specimen Number 1; cumulative, Time 58 h
test_readout: Total Active Agent Exuded from Gel (µg)

1) COC(=O)c1ccccc1O [Methyl Salicylate, reference compound]
16558

(P) O=C(O)c1ccccc1O [Salicylic Acid, reference compound]
(Q) O=c1c(O)c(-c2ccc(O)c(O)c2)oc2cc(O)cc(O)c12 [Quercetin]
(R) CCCCCCCCCCCCCCCC(=O)OC/C=C(C)/C=C/C=C(C)/C=C/C1=C(C)CCCC1(C)C [Vit. A Palmitate, reference compound]
stdin: # desc sort on Total Active Agent Exuded from Gel across 3 compounds # list labels per requested ordering
stdout: P, R, Q

====

test_summary: Exudation of active agents from gel specimens to filter paper discs, quantified by UV, MS, GC and/or HPLC after extraction
Assay type: physicochemical
stated_conditions: Gel Specimen Number 1; 3 h filter exposure, time 1-4 h; 37° C., 0.40 psi
test_readout: Active Agent Transferred from Gel to Filters (μg per filter)

1. O=C(O)c1ccccc1O [Salicylic Acid, reference compound]
793

(I) O=c1c(O)c(-c2ccc(O)c(O)c2)oc2cc(O)cc(O)c12
(II) COC(=O)c1ccccc1O [Methyl Salicylate, reference compound]
stdin: Please choose the item with the lower Active Agent Transferred from Gel to Filters value from this pair: I and II Mark your answer with the label of the selected entry.
stdout: I

====

test_summary: Exudation of active agents from gel specimens to filter paper discs, quantified by UV, MS, GC and/or HPLC after extraction
Format: physicochemical
stated_conditions: Gel Specimen Number 2; cumulative, Time 1 h
test_readout: Total Active Agent Exuded from Gel (µg)

1. O=C(O)c1ccccc1O [Salicylic Acid, reference compound]
705
2. O=c1c(O)c(-c2ccc(O)c(O)c2)oc2cc(O)cc(O)c12
12

(I) CCCCCCCCCCCCCCCC(=O)OC/C=C(C)/C=C/C=C(C)/C=C/C1=C(C)CCCC1(C)C [Vit. A Palmitate, reference compound]
(II) COC(=O)c1ccccc1O [Methyl Salicylate, reference compound]
stdin: Rank I against II by their Total Active Agent Exuded from Gel values and give the higher one. Mark your answer with the label of the selected entry.
stdout: II
